- System: biotinyl-Trp-oxazolone
- assay.remarks: self-aminoacylation, catalytic enhancement (BWO) (fold over background); higher = more active; k-Seq, kA / k0A0; sequences stand for … in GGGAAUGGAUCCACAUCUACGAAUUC…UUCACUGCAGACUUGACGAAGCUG
Fewer inactive variants are shown than the library holds.
Each entry below lists one item and its recorded self-aminoacylation value.
Field format: numeric only.

{"columns": ["sequence.entry", "assay.target", "measurement.label", "assay.value"],
 "data": [
  ["AUUUACCUUGGUCAUCGGGUG [Fam2.2 aminoacylation ribozyme variant]", "biotinyl-Trp-oxazolone", "self-aminoacylation", 6.6],
  ["CCACACUUCAACCAAUCGGUC [Fam1B.1 aminoacylation ribozyme variant]", "biotinyl-Trp-oxazolone", "self-aminoacylation", 35.2],
  ["AUCCACCUAGCUCAUCGGGUG [Fam2.2 aminoacylation ribozyme variant]", "biotinyl-Trp-oxazolone", "self-aminoacylation", 2.55],
  ["AUUCACCUGGGCCAUCGGGUG [Fam2.2 aminoacylation ribozyme variant]", "biotinyl-Trp-oxazolone", "self-aminoacylation", 4.74],
  ["ACACACUUCAAGCAAUGGGUC [Fam1B.1 aminoacylation ribozyme variant]", "biotinyl-Trp-oxazolone", "self-aminoacylation", 1.03]
]}

input: Would you mind telling me what self-aminoacylation value was observed for CAAAACUUCAAGCAAUCGGUC [Fam1B.1 aminoacylation ribozyme variant] ?
output: 10.6

* * *

The following sequences are listed with their measured self-aminoacylation values.
- Tested on: biotinyl-Phe-oxazolone
- assay.remarks: self-aminoacylation, catalytic enhancement (BFO) (fold over background); higher = more active; k-Seq, kA / k0A0; sequences stand for … in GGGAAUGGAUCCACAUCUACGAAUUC…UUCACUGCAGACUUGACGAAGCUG
This sample holds only a part of the variants without activity.
Output spec: single numeric token, no unit.

Study these solved cases before continuing.
{"columns": ["sequence.entry", "assay.value"],
 "data": [
  ["AUUCAACUAGGUCACCGGGUG [Fam2.2 aminoacylation ribozyme variant]", 38.8],
  ["AUUUCCCUCGUCAUCGAGUGA [Fam2.1 aminoacylation ribozyme variant]", 21.2],
  ["AUUACCUUGGUCUUCGAGUGA [Fam2.1 aminoacylation ribozyme variant]", 32.9]
]}

input: What value of self-aminoacylation has been recorded for this entry: CCACAAGUCAAGCAAUCGGUC [Fam1B.1 aminoacylation ribozyme variant]
output: 1.15

input: # input sequence: AUUCACCUACGUCAUCCGGUG [Fam2.2 aminoacylation ribozyme variant] ; wanted: its self-aminoacylation
output: 46.7

input: What value of measured self-aminoacylation is listed for AUUACCCUGGUCAUCAAGGGA [Fam2.1 aminoacylation ribozyme variant] ?
output: 1.11

input: self-aminoacylation for CUUCUUCAAACAAUCGGUCGG [Fam1A.1 aminoacylation ribozyme variant] ?
output: 10.9

input: Tell me the measured self-aminoacylation of GAGUUUGCGAAUAGUCGCAAG [Fam3.1 aminoacylation ribozyme variant] , please.
output: 7.65

input: Request the reported self-aminoacylation associated with AGGACCCUGGUCAUCGAGUGA [Fam2.1 aminoacylation ribozyme variant]
output: 36.7

* * *

- Tested on: biotinyl-Ile-oxazolone
- assay.remarks: self-aminoacylation, catalytic enhancement (BIO) (fold over background); higher = more active; k-Seq, kA / k0A0; sequences stand for … in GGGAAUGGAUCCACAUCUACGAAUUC…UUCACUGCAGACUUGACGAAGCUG
Fewer inactive variants are shown than the library holds.
The entries below are paired with their reported self-aminoacylation.
Give only the figure.

{"columns": ["sequence.entry", "assay.value"],
 "data": [
  ["CUUACCCUGGUCAUCGUGUGA [Fam2.1 aminoacylation ribozyme variant]", 1.79],
  ["CUAGUUCAAAUAAUCGGUCUG [Fam1A.1 aminoacylation ribozyme variant]", 0.901]
]}

input: Given AUUCACCUAGUUCAUCGGGCG [Fam2.2 aminoacylation ribozyme variant] , state its recorded self-aminoacylation.
output: 1.95

input: Which self-aminoacylation is listed for CUACUUCACACAAUCUGUCUG [Fam1A.1 aminoacylation ribozyme variant] ?
output: 0.655

input: Quick check: self-aminoacylation of CUAUUUCAAACAAUCGGUCUA [Fam1A.1 aminoacylation ribozyme variant] ?
output: 0.713

input: Which self-aminoacylation value belongs to AUUACCCUGGUCCUCGAGCGA [Fam2.1 aminoacylation ribozyme variant] ?
output: 1.46

input: Tell me the measured self-aminoacylation of CUGCUUCAAACAAUCGGUUUG [Fam1A.1 aminoacylation ribozyme variant] , please.
output: 2.07

input: Reported self-aminoacylation for CCACGCUUAAAGCAAUCGGUC [Fam1B.1 aminoacylation ribozyme variant] : what is it?
output: 0.96

* * *

- System: biotinyl-Ile-oxazolone
- assay.remarks: self-aminoacylation, catalytic enhancement (BIO) (fold over background); higher = more active; k-Seq, kA / k0A0; sequences stand for … in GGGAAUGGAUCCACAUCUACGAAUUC…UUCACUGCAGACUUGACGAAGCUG
Fewer inactive variants are shown than the library holds.
measurement.label: self-aminoacylation
Give the figure only, with no unit attached.

{"columns": ["sequence.entry", "assay.value"],
 "data": [
  ["AUUCCCCUGGUCAUCGAGUGU [Fam2.1 aminoacylation ribozyme variant]", 2.39],
  ["CCACACUUUAAGCAAUCGGGC [Fam1B.1 aminoacylation ribozyme variant]", 1.61],
  ["AUUCCCCUAGGUCAUUGGGUG [Fam2.2 aminoacylation ribozyme variant]", 7.23],
  ["CUACUCCAAACAAUCGGACUG [Fam1A.1 aminoacylation ribozyme variant]", 0.74],
  ["CUACUUCAAACAAUCGGUCGA [Fam1A.1 aminoacylation ribozyme variant]", 0.884],
  ["CCACGCUUCAAGCAGUCGGUC [Fam1B.1 aminoacylation ribozyme variant]", 0.755],
  ["AUUACCCUGGUCAUCCAGUUA [Fam2.1 aminoacylation ribozyme variant]", 0.875]
]}

# context switch: different sequence, same self-aminoacylation
input: State the recorded self-aminoacylation for this entry: CUACUCCAAACACUCGGUCUG [Fam1A.1 aminoacylation ribozyme variant]
output: 1.12

* * *

- Test system: biotinyl-Val-oxazolone
- assay.remarks: self-aminoacylation, catalytic enhancement (BVO) (fold over background); higher = more active; k-Seq, kA / k0A0; sequences stand for … in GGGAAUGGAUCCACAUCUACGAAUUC…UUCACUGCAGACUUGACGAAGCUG
Fewer inactive variants are shown than the library holds.
measurement.label: self-aminoacylation
Respond with the number and no other words.

input: Provide the documented self-aminoacylation with biotinyl-Val-oxazolone as the system for CCCCACUUCAAGCGAUCGGUC [Fam1B.1 aminoacylation ribozyme variant]
output: 2.02

input: Item: AUUGCCCUGGUCAUCGAGCGA [Fam2.1 aminoacylation ribozyme variant] Test system: biotinyl-Val-oxazolone Read-out: self-aminoacylation Value: ?
output: 2.33

input: What measured self-aminoacylation is associated with AUUACCCUGGACAUCGAGUGU [Fam2.1 aminoacylation ribozyme variant] on biotinyl-Val-oxazolone?
output: 2.66

input: Lookup: self-aminoacylation / biotinyl-Val-oxazolone / CCACACUUUAAGCAUUCGGUC [Fam1B.1 aminoacylation ribozyme variant]
output: 1.3

* * *

- System: biotinyl-Ile-oxazolone
- assay.remarks: self-aminoacylation, catalytic enhancement (BIO) (fold over background); higher = more active; k-Seq, kA / k0A0; sequences stand for … in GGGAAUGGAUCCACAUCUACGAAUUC…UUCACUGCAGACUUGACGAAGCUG
Variants at the floor of the assay were thinned out.
measurement.label: self-aminoacylation
# answer = number (no unit)

{"columns": ["sequence.entry", "self-aminoacylation"],
 "data": [
  ["AGGAUUGCUAAUAGUCGCAAG [Fam3.1 aminoacylation ribozyme variant]", 1.62],
  ["CGACAUCAAACAAUCGGUCUG [Fam1A.1 aminoacylation ribozyme variant]", 1.11],
  ["CCGCUCUUCAAGCAAUCGGUC [Fam1B.1 aminoacylation ribozyme variant]", 1.42],
  ["ACGUUUGCUAAUAGUCGCAUG [Fam3.1 aminoacylation ribozyme variant]", 2.21]
]}

input: // self-aminoacylation lookup, key: AGGUUUGCUAAUAGUCCCAAG [Fam3.1 aminoacylation ribozyme variant]
output: 0.901

input: Record request: self-aminoacylation value, item AUUCACCUAGGUGAUCGGCUG [Fam2.2 aminoacylation ribozyme variant]
output: 1.77

* * *

- System: biotinyl-Trp-oxazolone
- assay.remarks: self-aminoacylation, catalytic enhancement (BWO) (fold over background); higher = more active; k-Seq, kA / k0A0; sequences stand for … in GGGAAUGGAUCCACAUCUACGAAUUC…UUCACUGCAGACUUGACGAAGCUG
Fewer inactive variants are shown than the library holds.
Criterion: self-aminoacylation meeting or surpassing 1. Met: true (1). Not met: false (0).

The examples below pair each entry with its known result.
{"columns": ["sequence.entry", "category"],
 "data": [
  ["AAGAUUGCUAAAAGUCGCAAG [Fam3.1 aminoacylation ribozyme variant]", "true (1)"],
  ["CCACACUUAAAGAAAUCGGUC [Fam1B.1 aminoacylation ribozyme variant]", "false (0)"],
  ["CUACACUUCAAGCAAUCGGUU [Fam1B.1 aminoacylation ribozyme variant]", "true (1)"]
]}

input: Hi, just wondering whether AAGUUUGCUUAUAGUCGCUAG [Fam3.1 aminoacylation ribozyme variant] shows self-aminoacylation of 1 or higher.
output: false (0)

input: Kindly determine if self-aminoacylation recorded for AAGUUUGCUAAUAAACGCAAG [Fam3.1 aminoacylation ribozyme variant] is above or exactly 1.
output: false (0)

input: Check the entry CCGCACUUCAAGCAAUGGGUC [Fam1B.1 aminoacylation ribozyme variant] : does self-aminoacylation equal or exceed 1?
output: true (1)
